The values you see were collected from paper PMC7794297.

Protocol summary: Spermidine-templated DCL of building blocks 1-4
Details: 5% Secox
Attribute measured: Normalized Change of RPA (NC)

compound="O=C(O)c1cc(SSc2ccccc2)cc(SSc2cc(C(=O)O)c(SSc3ccccc3)cc2C(=O)O)c1 [(1)(2)(4)2]" result=-1,00
compound="O=C(O)c1cccc(SSc2cc(SSc3cc(SSc4cccc(C(=O)O)c4)cc(C(=O)O)c3)cc(C(=O)O)c2)c1 [(1)2(3)2]" result=0,27
compound="c1ccc(SSc2ccccc2)cc1 [(4)2]" result=-0,50

In the following, a different compound is considered.
Reported Normalized Change of RPA (NC) for O=C(O)c1cccc(SSc2cc(SSc3cccc(C(=O)O)c3)cc(C(=O)O)c2)c1 [(1)(3)2] was 0,86

----------
Protocol summary: Spermidine-templated DCL of building blocks 1-4
Details: 5% Secox
The compounds listed here are annotated with their Normalized Change of RPA (NC).

Reported Normalized Change of RPA (NC) for O=C(O)c1cccc(SSc2cccc(C(=O)O)c2)c1 was 0,51

Reported Normalized Change of RPA (NC) for O=C(O)c1cccc(SSc2cc(C(=O)O)c(SSc3cc(C(=O)O)c(SSc4cccc(C(=O)O)c4)cc3C(=O)O)cc2C(=O)O)c1 was -1,00

Reported Normalized Change of RPA (NC) for O=C(O)c1cc(SSc2ccccc2)c(C(=O)O)cc1SSc1ccccc1 was 0,04

Reported Normalized Change of RPA (NC) for O=C(O)c1cc2cc(c1)SSc1cc(cc(C(=O)O)c1)SSc1cc(cc(C(=O)O)c1)SS2 was -0,44

----------
Measured target: glucose oxidase (GOx) (Aspergillus niger, UniProt P13006)
Sequence (P13006 17-605): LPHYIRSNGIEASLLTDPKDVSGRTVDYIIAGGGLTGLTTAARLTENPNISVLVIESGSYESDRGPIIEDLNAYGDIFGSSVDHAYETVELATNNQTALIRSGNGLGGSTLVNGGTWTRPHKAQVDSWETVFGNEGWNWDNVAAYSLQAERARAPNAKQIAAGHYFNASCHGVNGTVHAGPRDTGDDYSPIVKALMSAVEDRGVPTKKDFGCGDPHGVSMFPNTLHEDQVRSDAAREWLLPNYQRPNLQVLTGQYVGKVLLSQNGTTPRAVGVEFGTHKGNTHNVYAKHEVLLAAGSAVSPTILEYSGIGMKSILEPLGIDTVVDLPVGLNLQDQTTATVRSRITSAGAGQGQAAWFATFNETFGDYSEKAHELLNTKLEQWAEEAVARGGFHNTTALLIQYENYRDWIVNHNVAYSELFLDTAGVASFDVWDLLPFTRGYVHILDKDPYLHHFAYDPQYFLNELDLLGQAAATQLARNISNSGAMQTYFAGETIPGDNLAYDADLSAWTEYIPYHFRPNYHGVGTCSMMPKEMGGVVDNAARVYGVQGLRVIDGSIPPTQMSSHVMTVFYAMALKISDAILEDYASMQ
Protocol summary: Tryptophan fluorescence emission binding experiments with GOx
Design: purchased Sigma Aldrich
Details: apparent dissociation constant; GOx 0.8 µM, Tris pH 7.8, 5% DMSO, 10 °C; read-out: Kd'
The molecules listed here are annotated with their pKd.
Keep it numeric: pKd is minus log10 of the concentration in mol/L.

molecule=c1ccc(SSc2ccccc2)cc1 numeric_readout=3.96

In the following, a different molecule is considered.
Reported pKd for O=C(O)c1cc(SSc2ccc([N+](=O)[O-])c(C(=O)O)c2)ccc1[N+](=O)[O-] [DTNB, 5,5′-dithiobis-2-nitrobenzoic acid, reference compound] was 4.19

----------
Measured target: glucose oxidase (GOx) (Aspergillus niger)
Attribute measured: IC50 (nM)
Answer format: numeric, nM implied, no suffix.

Assay glucose oxidase (GOx) (Aspergillus niger), sample c1ccc(SSc2ccccc2)cc1 [(4)2] , IC50 read: 1800

----------
Measured target: glucose oxidase (GOx) (Aspergillus niger, UniProt P13006)
Protocol summary: Glucose oxidase-directed DCL of building blocks 1-4
Set-up: purchased Sigma Aldrich
Details: blank vs GOx template DCL; GOx 57 μM, Secox 5% mol, 24 h
Attribute measured: NC of RPA

test_smiles=O=C(O)c1cc(SSc2ccccc2)c(C(=O)O)cc1SSc1ccccc1 result=0,19
test_smiles=O=C(O)c1cc(SSc2ccccc2)cc(SSc2cc(C(=O)O)c(SSc3ccccc3)cc2C(=O)O)c1 result=-1,00

Reported NC of RPA for O=C(O)c1cccc(SSc2cc(C(=O)O)c(SSc3cccc(C(=O)O)c3)cc2C(=O)O)c1 was 0,72

Reported NC of RPA for O=C(O)c1cccc(SSc2cc(C(=O)O)c(SSc3ccccc3)cc2C(=O)O)c1 was -0,32

Reported NC of RPA for O=C(O)c1cc(SSc2cc(C(=O)O)c(SSc3ccccc3)cc2C(=O)O)c(C(=O)O)cc1SSc1ccccc1 was -1,00

----------
Measured target: bovine serum albumin (BSA) (Bos taurus)
Sequence (P02769 25-607): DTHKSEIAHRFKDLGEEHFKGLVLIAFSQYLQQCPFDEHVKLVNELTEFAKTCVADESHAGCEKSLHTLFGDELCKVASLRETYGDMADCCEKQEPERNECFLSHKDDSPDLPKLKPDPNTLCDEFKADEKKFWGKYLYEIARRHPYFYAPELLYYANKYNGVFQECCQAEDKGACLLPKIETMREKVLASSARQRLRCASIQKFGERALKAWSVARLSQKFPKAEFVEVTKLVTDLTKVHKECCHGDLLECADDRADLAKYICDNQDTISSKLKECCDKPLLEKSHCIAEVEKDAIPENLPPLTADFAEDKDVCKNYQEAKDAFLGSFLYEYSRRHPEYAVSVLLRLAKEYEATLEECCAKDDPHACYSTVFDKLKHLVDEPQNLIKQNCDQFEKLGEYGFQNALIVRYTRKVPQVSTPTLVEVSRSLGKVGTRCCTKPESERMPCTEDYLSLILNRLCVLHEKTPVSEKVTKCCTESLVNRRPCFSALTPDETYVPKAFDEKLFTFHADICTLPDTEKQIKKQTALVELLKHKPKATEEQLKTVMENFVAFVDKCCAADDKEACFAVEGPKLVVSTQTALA
Protocol summary: BSA-directed DCL of building blocks 1-4
Design: purchased Roche; key: normalized change of relative peak area (RPA) vs blank DCL
Details: blank vs BSA-DCL; BSA 57 µM, Secox 5% mol, 24 h
Attribute measured: NC of RPA

Use the examples below as a reference point.
molecule="c1ccc(SSc2ccccc2)cc1 [(4)2]" result=0,02
molecule="O=C(O)c1cc(SSc2ccccc2)cc(SSc2cc(C(=O)O)c(SSc3ccccc3)cc2C(=O)O)c1 [(1)(2)(4)2]" result=2,84
molecule="O=C(O)c1cc(SSc2cc(C(=O)O)c(SSc3ccccc3)cc2C(=O)O)c(C(=O)O)cc1SSc1ccccc1 [(2)2(4)2]" result=0,31
molecule="O=C(O)c1cccc(SSc2cc(C(=O)O)c(SSc3cccc(C(=O)O)c3)cc2C(=O)O)c1 [(2)(3)2]" result=-1,00
molecule="O=C(O)c1cc2cc(c1)SSc1cc(cc(C(=O)O)c1)SSc1cc(cc(C(=O)O)c1)SSc1cc(cc(C(=O)O)c1)SS2 [(1)4]" result=0,14

Assay bovine serum albumin (BSA) (Bos taurus), sample O=C(O)c1cccc(SSc2cc(C(=O)O)c(SSc3cc(C(=O)O)c(SSc4cccc(C(=O)O)c4)cc3C(=O)O)cc2C(=O)O)c1 [(2)2(3)2] , NC of RPA read: -1,00

Assay bovine serum albumin (BSA) (Bos taurus), sample O=C(O)c1cc2cc(c1)SSc1cc(cc(C(=O)O)c1)SSc1cc(cc(C(=O)O)c1)SS2 [(1)3] , NC of RPA read: -0,19

Assay bovine serum albumin (BSA) (Bos taurus), sample O=C(O)c1cccc(SSc2cc(SSc3cccc(C(=O)O)c3)cc(C(=O)O)c2)c1 [(1)(3)2] , NC of RPA read: -0,75

----------
Protocol summary: NADPH-templated DCL of building blocks 1-4
Details: 0% Secox
Attribute measured: Normalized Change of RPA (NC)

Reported Normalized Change of RPA (NC) for O=C(O)c1cccc(SSc2cccc(C(=O)O)c2)c1 was 0,56

----------
The compounds listed here are annotated with their Normalized Change of RPA (NC).
Protocol summary: Spermidine-templated DCL of building blocks 1-4;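 also: Spermidine-templated dynamic combinatorial library, normalized change of RPA compared between Secox-free and Secox-containing libraries, DCC runs done in triplicate, values given as mean ± SD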
Details: 5% Secox

compound="O=C(O)c1cc(SSc2cc(C(=O)O)c(SSc3ccccc3)cc2C(=O)O)c(C(=O)O)cc1SSc1ccccc1 [(2)2(4)2]" attribute_measured="Normalized Change of RPA (NC)" result=-1,00
compound="O=C(O)c1cccc(SSc2cc(SSc3ccccc3)cc(C(=O)O)c2)c1 [(3)(1)(4)]" attribute_measured="Normalized Change of RPA (NC)" result=-1,00
compound="O=C(O)c1cccc(SSc2cc(C(=O)O)c(SSc3cccc(C(=O)O)c3)cc2C(=O)O)c1 [(2)(3)2]" attribute_measured="Normalized Change of RPA (NC)" result=-0,19
compound="O=C(O)c1cccc(SSc2cc(C(=O)O)c(SSc3ccccc3)cc2C(=O)O)c1 [(2)(3)(4)]" attribute_measured="Normalized Change of RPA (NC)" result=-0,65

Reported Normalized Change of RPA (NC) for O=C(O)c1cc2cc(c1)SSc1cc(cc(C(=O)O)c1)SSc1cc(cc(C(=O)O)c1)SSc1cc(cc(C(=O)O)c1)SS2 [(1)4] was -0,43

----------
Protocol summary: NADPH-templated DCL of building blocks 1-4;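 also: values are means ± SD of DCC experiments run in triplicate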
Details: 0% Secox
Attribute measured: Normalized Change of RPA (NC)

test_smiles=O=C(O)c1cc2cc(c1)SSc1cc(cc(C(=O)O)c1)SSc1cc(cc(C(=O)O)c1)SS2 result=-0,70
test_smiles=O=C(O)c1cc(SSc2ccccc2)c(C(=O)O)cc1SSc1ccccc1 result=-0,16
test_smiles=O=C(O)c1cc(SSc2cc(C(=O)O)c(SSc3ccccc3)cc2C(=O)O)c(C(=O)O)cc1SSc1ccccc1 result=0,13

Reported Normalized Change of RPA (NC) for O=C(O)c1cccc(SSc2cc(C(=O)O)c(SSc3ccccc3)cc2C(=O)O)c1 was -0,12

Reported Normalized Change of RPA (NC) for O=C(O)c1cccc(SSc2cc(C(=O)O)c(SSc3cccc(C(=O)O)c3)cc2C(=O)O)c1 was 2,41

Reported Normalized Change of RPA (NC) for O=C(O)c1cccc(SSc2cc(C(=O)O)c(SSc3cc(C(=O)O)c(SSc4cccc(C(=O)O)c4)cc3C(=O)O)cc2C(=O)O)c1 was -0,69

Reported Normalized Change of RPA (NC) for O=C(O)c1cccc(SSc2cc(SSc3ccccc3)cc(C(=O)O)c2)c1 was -0,82

Reported Normalized Change of RPA (NC) for O=C(O)c1cccc(SSc2cc(SSc3cccc(C(=O)O)c3)cc(C(=O)O)c2)c1 was 1,24

Reported Normalized Change of RPA (NC) for O=C(O)c1cc(SSc2ccccc2)cc(SSc2cc(C(=O)O)c(SSc3ccccc3)cc2C(=O)O)c1 was -1,00

----------
Measured target: glucose oxidase (GOx) (Aspergillus niger, UniProt P13006)
Protocol summary: Glucose oxidase-directed DCL of building blocks 1-4
Design: purchased Sigma Aldrich
Details: blank vs GOx template DCL; GOx 57 μM, Secox 5% mol, 24 h
Attribute measured: NC of RPA

test_smiles=O=C(O)c1cccc(SSc2cc(C(=O)O)c(SSc3cc(C(=O)O)c(SSc4cccc(C(=O)O)c4)cc3C(=O)O)cc2C(=O)O)c1 measured_target="glucose oxidase (GOx) (Aspergillus niger, UniProt P13006)" attribute_measured="NC of RPA" result=-1,00

Reported NC of RPA for O=C(O)c1cccc(SSc2cccc(C(=O)O)c2)c1 was -0,35

Reported NC of RPA for O=C(O)c1cccc(SSc2cc(SSc3cc(SSc4cccc(C(=O)O)c4)cc(C(=O)O)c3)cc(C(=O)O)c2)c1 was -0,36

Reported NC of RPA for O=C(O)c1cc2cc(c1)SSc1cc(cc(C(=O)O)c1)SSc1cc(cc(C(=O)O)c1)SSc1cc(cc(C(=O)O)c1)SS2 was -0,86
